These entries and their values trace back to ChEMBL document CHEMBL3507680.

test: Human HepG2 cell viability assay in 384 well format; assay type: toxicity, cell-based; design: dose 125 nL, time 70.5 hour; concentration not given beside the values; settings: HepG2 cells, read-out: Inhibition
Parameter Measured: cytotoxicity at 70.5 h (%)
Write the answer as a number in %, unit excluded.

Before answering, review these 5 worked examples.
[
  {
    "Molecule": "COc1ccnc(N(C)Cc2ccccc2OC(F)(F)F)n1",
    "Parameter Measured": "cytotoxicity at 70.5 h",
    "Observed Value": -1.49
  },
  {
    "Molecule": "COCCN1CCC(c2nc3ccccc3[nH]2)CC1",
    "Parameter Measured": "cytotoxicity at 70.5 h",
    "Observed Value": -11
  },
  {
    "Molecule": "COc1c(C(=O)N2CCOC(c3cccs3)C2)c(C)nn1C (configuration not stated)",
    "Parameter Measured": "cytotoxicity at 70.5 h",
    "Observed Value": -5.91
  },
  {
    "Molecule": "CCn1ccnc1CN1CCN(CCC(=O)NC2CCCCC2)CC1",
    "Parameter Measured": "cytotoxicity at 70.5 h",
    "Observed Value": -6.92
  },
  {
    "Molecule": "CCCc1cc(C(=O)NCCCn2nnc3ccccc32)no1",
    "Parameter Measured": "cytotoxicity at 70.5 h",
    "Observed Value": -6.64
  }
]

Exercise: Which cytotoxicity at 70.5 h value is on record for `Cc1cnn(CCNCc2cc(=O)n3cc(Cl)ccc3n2)c1` ?
Solution: -6.7

Exercise: Quick one: Cc1cc(C)n(CC(C)NC2CCN(Cc3cccc(O)c3)CC2)n1 (configuration not stated)
Solution: -7.84

Exercise: Repeat for the following molecule: CCN(CC1CCOC1)C(=O)c1ccc(N2CCOCC2)c(F)c1 (configuration not stated)
Solution: -6.24

---

assay: Human HepG2 cell viability assay in 384 well format; type: toxicity, cell-based; design: dose 125 nL, time 70.5 hour; concentration not given beside the values; conditions: HepG2 cells, read-out: Inhibition
Parameter Measured: cytotoxicity at 70.5 h (%)
Numeric only. Scale: %

Answered cases to consult:
[
  {
    "Compound": "Cc1cc(C)n(C2CCCN(C(=O)CCOc3cccc(F)c3)C2)n1 (stereo unspecified)",
    "Observed Value": -2.12
  },
  {
    "Compound": "CCN1CCCN(S(=O)(=O)c2cc3ccccc3o2)CC1",
    "Observed Value": -4.88
  },
  {
    "Compound": "O=C(Nc1ccc2c(c1)C(=O)NC2)c1ccc(S(=O)(=O)C(F)(F)F)cc1",
    "Observed Value": -2.46
  },
  {
    "Compound": "Cn1ccc(NC(=O)CN2C[C@H]3CC[C@@H]2CN(Cc2ccccn2)C3)n1",
    "Observed Value": -3.7
  },
  {
    "Compound": "O=C(c1ccoc1)N1CCC2(CC1)COC(COCc1ccccn1)C2 (stereo unspecified)",
    "Observed Value": 10.2
  }
]

Exercise: Any idea what its cytotoxicity at 70.5 h is? The compound is `Cc1noc(CNC(=O)CN(C)c2nc3c(F)cccc3s2)n1`
Solution: 28.5

Exercise: Then CN(CCc1ccccn1)C(=O)CCC1CCCN(c2ccncc2)C1 (stereo unspecified) ?
Solution: 0

Exercise: Item: `COc1ccc(-c2cc(N)on2)cc1`
Solution: 13.8

Exercise: Check `CCc1cnc(C)nc1NCCN1CCC(O)CC1` too.
Solution: 9.55

Exercise: Entry CC(C)OCCNC(=O)C1CCC(=O)N(C2CCCC2)C1 (stereo unspecified) please
Solution: -4.22

Exercise: Also `CCn1c(C)cc(C(=O)NCc2ccc(CS(C)(=O)=O)cc2)c1C` , if possible.
Solution: -7.81

---

Reported cytotoxicity at 70.5 h is given for each of the following compounds.
assay: Human HepG2 cell viability assay in 384 well format; type: toxicity, cell-based; set-up: dose 125 nL, time 70.5 hour; concentration not given beside the values; details: HepG2 cells, read-out: Inhibition
Please reply with the bare figure in % and do not write the unit itself.

# example entries with known answers
[
  {
    "Compound": "O=C(CC1CCCC1)N1C[C@@H]2CCN(c3cccnc3)C[C@@H]2C1",
    "cytotoxicity at 70.5 h, %": -7.38
  },
  {
    "Compound": "COCCNC(=O)Cn1ccc2sc(C)cc2c1=O",
    "cytotoxicity at 70.5 h, %": -5.23
  },
  {
    "Compound": "COCc1cc(CN(C)C(C(=O)O)c2cc(C)c(OC)c(C)c2)n[nH]1 (centres undefined)",
    "cytotoxicity at 70.5 h, %": -2.3
  },
  {
    "Compound": "COc1ccc(OC)c(CNCc2c(C)nc3sc(C)cn23)c1",
    "cytotoxicity at 70.5 h, %": 16.5
  }
]

Exercise: Which cytotoxicity at 70.5 h is listed for `Cc1nc2[nH]cnc(NCCN3CCCC3)c-2n1` ?
Solution: -9.67

Exercise: Now give it for `COc1cc(C)ccc1S(=O)(=O)N[C@H]1CN(C(C)=O)C[C@@H]1C1CC1` too.
Solution: 18.1

Exercise: Now consider CC(C)c1nc(C2CCCN(c3cnc4ccccc4n3)C2)no1 (centres undefined) .
Solution: -5.55

Exercise: Also need CNC(=O)c1ccc(C2CN(C(=O)c3cnn(C)c3)CCO2)nc1 (centres undefined) , thanks.
Solution: -4.81

Exercise: Same question, `CCC(CC)C(=O)NCCC(=O)N1CCN(c2ccccn2)CC1` this time
Solution: 2.35

Exercise: Consider next the compound Cc1ccc(CCNC(=O)NC2CCN(CC(F)(F)F)C2=O)cn1 (centres undefined) in the same way.
Solution: -5.39

Exercise: Now try Cc1nnc(SCC(=O)NCC(c2ccccc2Cl)N(C)C)s1 (centres undefined) .
Solution: -7.07

Exercise: Can you handle `O=C(Cn1cnc2cc3c(cc21)OCCCO3)NCCc1ccccc1` next?
Solution: 0.395

---

Recorded cytotoxicity at 70.5 h, one value per entry.
assay: Human HepG2 cell viability assay in 384 well format; format: toxicity, cell-based; set-up: dose 125 nL, time 70.5 hour; concentration not given beside the values; conditions: HepG2 cells, read-out: Inhibition
Numeric only. Scale: %

Before answering, review these 8 worked examples.
[
  {
    "Compound": "O=C(O)c1cc(-c2cccnc2)cc(S(=O)(=O)N2CCCCCC2)c1",
    "Unit Of Measure": "%",
    "cytotoxicity at 70.5 h": -11.7
  },
  {
    "Compound": "CC(C)NC(=O)c1nn(C)c(NC(=O)Cc2ccccc2)c1F",
    "Unit Of Measure": "%",
    "cytotoxicity at 70.5 h": -11.4
  },
  {
    "Compound": "Cc1cnn(CC2CCCN2CC(=O)Nc2cc(C(C)(C)C)no2)c1 (stereo not given)",
    "Unit Of Measure": "%",
    "cytotoxicity at 70.5 h": 5.18
  },
  {
    "Compound": "CCc1nc(CNCC2CCCN2c2cccnn2)no1 (stereo not given)",
    "Unit Of Measure": "%",
    "cytotoxicity at 70.5 h": -4.56
  },
  {
    "Compound": "O=C(Nc1ccc(-c2csnn2)cc1)N1CCCC1",
    "Unit Of Measure": "%",
    "cytotoxicity at 70.5 h": -11.8
  },
  {
    "Compound": "CC(C)CN1CCn2c(COCc3cccnc3)nnc2C1",
    "Unit Of Measure": "%",
    "cytotoxicity at 70.5 h": -4.01
  },
  {
    "Compound": "CNc1cc(-c2ccc(COCCN)cc2)c2cc[nH]c2n1",
    "Unit Of Measure": "%",
    "cytotoxicity at 70.5 h": -13.6
  },
  {
    "Compound": "O=C(NC[C@H]1CCCO1)c1ccc(S(=O)(=O)N2C[C@@H]3C[C@H]2CN3)cc1",
    "Unit Of Measure": "%",
    "cytotoxicity at 70.5 h": -1.62
  }
]

Exercise: What value of cytotoxicity at 70.5 h has been recorded for this entry: c1nc2n(c1CN1CCOCC1)CCN(C1CCOC1)CC2 (stereo not given)
Solution: 7.7

Exercise: And what about the compound `Cc1nc(C)c(C)c(N2CCC(O)(c3ccc(F)cc3)CC2)n1` ?
Solution: -6.02

Exercise: Repeat for the following compound: `CCOCC(=O)N1CCC2(CC1)CN(Cc1cccnc1)C(=O)CO2`
Solution: -9.22

---

assay: Human HepG2 cell viability assay in 384 well format; format: toxicity, cell-based; parameters: dose 125 nL, time 70.5 hour; concentration not given beside the values; conditions: HepG2 cells, read-out: Inhibition
Below, each entry is listed alongside its reported cytotoxicity at 70.5 h.
Note: unit % is implicit; provide only the numeric part.

[
  {
    "Compound": "CN(CC(=O)N(C)C(c1ccc(Cl)cc1)c1cccnc1)C1CC1 (stereo unspecified)",
    "Unit Of Measure": "%",
    "cytotoxicity at 70.5 h": -5.57
  },
  {
    "Compound": "CN(C)CCN1CCCC12CCCN(C(=O)c1cccnc1)C2 (stereo unspecified)",
    "Unit Of Measure": "%",
    "cytotoxicity at 70.5 h": -5.22
  },
  {
    "Compound": "Cc1cnc(N2C[C@@H]3CCN(CC4CC4)C(=O)[C@H]3C2)nc1",
    "Unit Of Measure": "%",
    "cytotoxicity at 70.5 h": -4.98
  }
]

Exercise: Return reported cytotoxicity at 70.5 h; argument: `CC(C)(C)Nc1c(C2CCN(C(=O)C3CC3)CC2)nc2ccccn12`
Solution: 17.8

Exercise: Try this compound too: Cc1n[nH]c(C2CN(C(=O)c3ccoc3C)CCO2)n1 (stereo unspecified)
Solution: 1.53

Exercise: Repeat with `Cc1n[nH]c(C)c1S(=O)(=O)N(C)Cc1nn(C)c(Cl)c1Cl`
Solution: 22.3

Exercise: Can you handle `CC(C)n1ccnc1CN1CCCN(C(=O)c2nccnc2N)CC1` next?
Solution: -16.3

Exercise: Another compound: `CC(C)OCc1nn(CC2CC2)c2c1CN(Cc1ccco1)CC2`
Solution: -1.8

Exercise: Same thing, different compound: `CCN(CC)C(=O)NCCc1ccn(-c2ccccc2)n1`
Solution: 11

Exercise: Same read-out for Cc1nc(C)n(CC2CCCN(Cc3cc(C#N)ccc3F)C2)n1 (stereo unspecified) ?
Solution: 0.508

Exercise: Continue with `O=C(COc1coc(CN2CCCC2)cc1=O)NCc1ccccc1Cl`
Solution: 3.62

Exercise: Input O=C1CN(C(=O)c2ccc(Cl)cc2)CC(O)CN1Cc1cccs1 (stereo unspecified)
Solution: -5.51

Exercise: And for COCCC(=O)N1CCCC2(CCC(=O)N(CCc3c[nH]cn3)C2)C1 (stereo unspecified) ?
Solution: -5.35
